# Test system: haematopoietic & lymphoid tumors (13 cell lines)
# assayName: CellTiter-Glo Viability Assay, haematopoietic & lymphoid tumors
# Type: cell-based
# conditionNotes: Homo sapiens; JeKo-1 cell line; inhibition of cancer cell proliferation; read-out: Haematopoietic & Lymphoid tumors, EC50 (μM) JeKo-1
readoutLabel: EC50 (µM)

moleculeSmiles	EC50 (µM)
Cn1cc(-c2ccc3cnc(NC(=O)c4ccc5c(c4)CNCC5)cc3c2)cn1	0.157
[2H]c1c([2H])c([2H])c(/C=C/C(=O)Nc2cc3cc(-c4cncn4C)ccc3cn2)c([2H])c1[2H]	0.136
CN1CC=C(c2cc(C(=O)Nc3cc4cc(-c5cncc(NC(C)(C)C)n5)cnc4cn3)ccn2)CC1	0.884
CN(C)Cc1cncc(-c2cnc3[nH]nc(-c4nc5c(-c6cc(F)cc(N7CCOCC7)c6)cncc5[nH]4)c3c2)c1	0.182

1. CN1CCC2(CC1)CN(c1cc(C(=O)Nc3cc4cc(-c5cnn(C)c5CO)ccc4cn3)ccn1)C2
2. CN(C)Cc1cncc(-c2ccc3[nH]nc(-c4cc5c(-c6ccoc6)ccnc5[nH]4)c3c2)c1
3. Cc1ncc(-c2ccc3cnc(NC(=O)c4cnn(C5CCN(C)CC5)c4)cc3c2)o1
List from greatest to least EC50. Please list the labels in the order you were asked to rank them.
2, 1, 3
